Source listed as patent US6949648B2.

endpoint name: melting point

smiles_text=CCc1nn(-c2ccccn2)c2nc3cc(F)c(F)cc3c(Cl)c12 endpoint_name="melting point" reported="160 to 161 °C"
smiles_text=Cc1nn(-c2ccccn2)c2[nH]c3cc(C(=O)O)ccc3c(=O)c12 endpoint_name="melting point" reported="> 300 °C"
smiles_text=COC(=O)Cc1nn(-c2ccccn2)c2[nH]c3ccccc3c(=O)c12 endpoint_name="melting point" reported="240 to 241 °C"
smiles_text=Cc1nn(-c2ccccn2)c2nc3ccccc3c(Cl)c12 endpoint_name="melting point" reported="157 to 159 °C"
smiles_text=Cc1c(O)nc2c(c(C)nn2-c2ccccn2)c1C endpoint_name="melting point" reported="226 to 228 °C"
smiles_text=Cc1nn(-c2ccccn2)c2[nH]c3cccc(C(=O)O)c3c(=O)c12 endpoint_name="melting point" reported="303 to 306 °C"
smiles_text=Cc1nn(-c2ccccn2)c2nc3ccccc3c(C(N)=O)c12 endpoint_name="melting point" reported="> 300 °C"
smiles_text=Cc1nn(-c2cccnc2)c2nc3ccccc3c(Cl)c12 endpoint_name="melting point" reported="144 to 145 °C"
smiles_text=CCCCN(C)c1c2ccccc2nc2c1c(C)nn2-c1ccccn1 endpoint_name="melting point" reported="85 to 87 °C"
smiles_text=Cc1nn(-c2ccccn2)c2[nH]c3cccc(F)c3c(=O)c12.Cl endpoint_name="melting point" reported="> 380 °C"
smiles_text=O=C(O)Cc1nn(-c2ccccn2)c2[nH]c3ccccc3c(=O)c12 endpoint_name="melting point" reported="229 to 231 °C"
smiles_text=Cc1nn(-c2ccccn2)c2nc(O)c3c(c12)CCC3 endpoint_name="melting point" reported="255 to 256 °C"

* * *

# Test system: yeast-induced pyrexia
# experimental details: Antipyretic activity in yeast-induced pyrexia
# Format: in vivo, SD rats
# test parameters: 10 mg/kg orally; maximum difference in body temperature vs control over 6 hours
# Procedure: Antipyretic Activity in Yeast-Induced Pyrexia Antipyretic activity was determined using male SD origin male-rats (7 weeks old, CLEA Japan, 1 group: n=6), according to the method of winter et. al. (J. Pharmacol. Exp. Ther., vol. 138, p. 405, 1963). […] After 16 hours from the yeast shot, a thermistor terminal was inserted at an about 4 cm depth into rectum every hour, and the body temperatures after 30 seconds were recorded. […]
Marks after values point to notes of the source that are not given here.
endpoint name: Δ (° C.) Dosage 10 mg/kg

smiles_text=CCCNc1c2ccccc2nc2c1c(C)nn2-c1ccccn1 reported="0.8** ° C."
smiles_text=O=c1c2cc(Cl)ccc2[nH]c2c1cnn2-c1ccccn1 reported="1.4** ° C."
smiles_text=Cc1nn(-c2ccccn2)c2nc3ccccc3c(OC3CCCC3)c12 reported="1.8** ° C."
smiles_text=Cc1nn(-c2ccccn2)c2[nH]c3cccc(F)c3c(=O)c12.Cl reported="1.4** ° C."

* * *

endpoint name: melting point

compound="Cc1nn(Cc2ccncc2)c2[nH]c3ccccc3c(=O)c12 [Example 2-192]" reported="277 to 280 °C"
compound="Cc1cccnc1-n1nc(C)c2c(Cl)c3ccccc3nc21 [Example 2-118]" reported="160 to 161 °C"
compound="Cc1nn(-c2ccccn2)c2[nH]c3cc(F)c(F)cc3c(=O)c12.O (hydrate or solvate) [Example 2-92]" reported="273 to 275 °C"
compound="Cc1nn(-c2ccc(Cl)cn2)c2[nH]c3ccccc3c(=O)c12 [Example 2-114]" reported="262 to 263 °C"
compound="Cc1nn(-c2ccccn2)c2nc3cc(F)c(F)cc3c(OC(C)C)c12 [Example 2-95]" reported="159 to 160 °C"

* * *

# System: IL-4
# experimental details: Effect on cytokine production of mice sensitized by controlled-release ovalbumin: IL-4
# Type: in vivo, BALB/c mouse
# test parameters: Mus musculus, po; 30 mg/kg b.w. orally, 5 days a week during 9-day period; splenic cells incubated with OVA 3 days, ELISA; read-out: Suppression Rate (%) IL-4
Below, each of the compounds is paired with its reported inhibition in vivo at 30 mg/kg value.
endpoint name: inhibition in vivo at 30 mg/kg (%)

compound="Cc1nn(Cc2ccccn2)c2[nH]c3ccccc3c(=O)c12 [Example 1-69]" unit_abbreviation=% reported=19.4
compound="Cc1nn(-c2ccccn2)c2[nH]c3ccc(Cl)cc3c(=O)c12 [Example 1-51]" unit_abbreviation=% reported=31.9
compound="Cc1cccc2c(N)c3c(C)nn(-c4ccc5ccccc5n4)c3nc12 [Example 1-66]" unit_abbreviation=% reported=27.1
compound="Cc1cccc2c(=O)c3c(C)nn(-c4ccccn4)c3[nH]c12 [Example 1-47]" unit_abbreviation=% reported=49.9
compound="Cc1cccnc1-n1nc(C)c2c(Cl)c3ccccc3nc21 [Example 1-56]" unit_abbreviation=% reported=23.7

* * *

Below, each of the molecules is paired with its reported melting point value.
endpoint name: melting point

smiles_text=Cc1cc(C)nc(-n2nc(C)c3c(Cl)c4ccccc4nc32)n1 reported="191 to 192 °C"
smiles_text=Cc1nn(-c2ccccn2)c2ncc(C(=O)N3CCCCC3)c(O)c12 reported="264 to 266 °C"
smiles_text=Cc1nn(-c2ccccn2)c2nc3ccccc3c(N)c12 reported="210 to 213 °C"
smiles_text=CCCCCc1c2ccccc2nc2c1c(C)nn2-c1ccccn1 reported="121 to 122 °C"
smiles_text=Cc1nn(-c2nccs2)c2[nH]c3ccccc3c(=O)c12 reported="226 to 227 °C"
smiles_text=Cc1nn(-c2ccccn2)c2ncc(C(=O)Nc3ccccc3)c(O)c12 reported="> 300 °C"
smiles_text=Cc1nn(-c2ccccn2)c2nc3ccccc3c(N3CCOCC3)c12 reported="203 to 205 °C"
smiles_text=Cc1nn(-c2ccccn2)c2nc3ccccc3c(OCC(C)C)c12 reported="117 to 120 °C"
smiles_text=Cc1cccc2nc3c(c(C)nn3-c3ccccn3)c(N)c12 reported="252 to 255 °C"
